These measurements were taken from PubChem BioAssay (NCI).

Recorded TGI values for a group of molecules are listed next.
system: SNB-75 CNS; assay: NCI tumour cell line growth inhibition, 48 h

- MOLECULE: "Cc1ccc2c(ccc3c[n+]4c5ccccc5ccc4n32)c1"
  TGI: "8.05 µM"
- MOLECULE: "CCCc1[nH]nc(CCC(=O)N(Cc2ccccc2)Cc2ccccc2)c1CC"
  TGI: "> 100 µM"
- MOLECULE: "COc1ccc(N[C@H](CSc2ccc(C)cc2)c2ccc(F)cc2)cc1"
  TGI: "> 100 µM"
- MOLECULE: "COC(=O)CCC(NC(=S)N/N=C(\\C)c1nccs1)C(=O)OC (stereo unspecified)"
  TGI: "> 100 µM"
- MOLECULE: "CC1(C)O[C@@H]2COC(=O)[C@@H]2O1"
  TGI: "> 100 µM"
- MOLECULE: "CSCCC(NCc1c(O)ccc2c(-c3ccccc3)cc(=O)oc12)C(=O)O (stereo unspecified)"
  TGI: "> 100 µM"
